What viability was measured for each of the following?
MEASUREMENT_DESCRIPTION: drug combination growth inhibition, ovarian cancer – cell-based, oncology-focused library, rucaparib conditional, profiling panel (AID 1508598)
TEST_SETTINGS: patient-derived ovarian cancer cells, CellTiter-Glo viability, 144 h; at 0.00122 µM; OCI-P5x cells; without rucaparib; active compounds read low
Where a SMILES comes first, the peptide text is derived from it. The star is where a group is joined. Cbz = O=C(OCc1ccccc1)*; CH2F = FC*
Give bare numbers, in %.

Would you please look over these solved cases?
[[record]]
molecule = "COC(=O)C[C@H](NC(=O)[C@H](C)NC(=O)[C@@H](NC(=O)OCc1ccccc1)C(C)C)C(=O)CF (Cbz-Val-Ala-Asp(OMe)-CH2F)"
output_unit = "%"
result_value = 107

[[record]]
molecule = "C[C@@H]1C[C@H]2[C@@H]3CCC4=CC(=O)C=C[C@]4(C)[C@]3(F)[C@H](O)C[C@]2(C)[C@]1(O)C(=O)CO"
output_unit = "%"
result_value = 123

[[record]]
molecule = "Cc1cc2c(C(=O)NC[C@H](C)c3ccccc3)c(O)c(O)cc2c(O)c1-c1c(C)cc2c(C(=O)NC[C@H](C)c3ccccc3)c(O)c(O)cc2c1O"
output_unit = "%"
result_value = 89.2


Moving on to the next molecule.
Complete the entry with viability for `COc1ccc(C2=N[C@H](c3ccc(Cl)cc3)[C@@H](c3ccc(Cl)cc3)N2C(=O)N2CCNC(=O)C2)c(OC(C)C)c1`
85.3
